Each entry below carries its reported PBM binding z-score.
System: LXRb homodimer (NR concentration 270 nM)
Assay: PBM binding z-score (relative to random genomic background probes); higher = stronger binding; sequences stand for … in GC…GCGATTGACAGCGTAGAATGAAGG

>  <Macromolecule sequence>
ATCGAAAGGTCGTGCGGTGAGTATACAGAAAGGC

>  <PBM binding z-score>
1.5

$$$$
>  <Macromolecule sequence>
ATCTCTAGGTAACCAAGTTTAGTGAATGCCGAAC

>  <PBM binding z-score>
0.481

$$$$
>  <Macromolecule sequence>
CCAGTCAGGTGAGAAGGTAACTCAGCCTCGATTA

>  <PBM binding z-score>
-0.774

$$$$
>  <Macromolecule sequence>
TCTGCTAGGTCAACGATGGTCAGCTCATCTGCTA

>  <PBM binding z-score>
0.088

$$$$
